// data source = ChEMBL document CHEMBL1149653

target: Nitric oxide synthase 3 (Bos taurus); assay: Inhibition of recombinant bovine eNOS expressed in Escherichia coli
Sequence (P29473 whole entry): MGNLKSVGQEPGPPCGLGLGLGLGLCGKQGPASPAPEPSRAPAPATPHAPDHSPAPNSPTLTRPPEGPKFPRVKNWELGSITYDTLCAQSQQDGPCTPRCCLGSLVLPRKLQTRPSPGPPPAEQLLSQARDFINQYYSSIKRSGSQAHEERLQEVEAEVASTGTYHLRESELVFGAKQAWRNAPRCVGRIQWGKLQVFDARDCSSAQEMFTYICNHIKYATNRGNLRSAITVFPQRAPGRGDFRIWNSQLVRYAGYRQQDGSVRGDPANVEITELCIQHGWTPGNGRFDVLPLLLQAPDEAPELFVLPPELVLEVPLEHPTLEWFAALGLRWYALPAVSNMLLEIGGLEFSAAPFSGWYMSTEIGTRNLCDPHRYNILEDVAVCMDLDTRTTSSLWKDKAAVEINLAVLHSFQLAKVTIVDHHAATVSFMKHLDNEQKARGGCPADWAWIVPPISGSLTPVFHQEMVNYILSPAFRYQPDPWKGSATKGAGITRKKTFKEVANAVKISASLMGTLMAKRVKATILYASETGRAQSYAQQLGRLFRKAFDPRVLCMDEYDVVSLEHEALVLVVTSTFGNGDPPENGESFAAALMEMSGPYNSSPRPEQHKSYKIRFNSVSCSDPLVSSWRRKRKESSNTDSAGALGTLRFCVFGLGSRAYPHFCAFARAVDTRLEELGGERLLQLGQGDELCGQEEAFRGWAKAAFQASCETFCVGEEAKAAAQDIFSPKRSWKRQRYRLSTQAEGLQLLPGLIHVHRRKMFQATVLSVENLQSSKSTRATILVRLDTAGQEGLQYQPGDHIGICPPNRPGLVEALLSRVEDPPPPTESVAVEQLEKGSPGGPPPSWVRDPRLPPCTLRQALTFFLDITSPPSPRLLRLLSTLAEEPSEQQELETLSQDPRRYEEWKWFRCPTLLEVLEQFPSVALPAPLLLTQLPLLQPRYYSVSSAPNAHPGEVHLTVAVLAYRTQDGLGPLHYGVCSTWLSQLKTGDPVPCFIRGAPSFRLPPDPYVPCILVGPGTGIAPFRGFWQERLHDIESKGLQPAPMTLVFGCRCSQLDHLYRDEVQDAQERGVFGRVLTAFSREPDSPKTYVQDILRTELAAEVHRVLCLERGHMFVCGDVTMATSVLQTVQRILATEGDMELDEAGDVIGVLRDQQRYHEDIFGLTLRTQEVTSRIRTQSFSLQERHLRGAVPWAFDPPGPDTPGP
reported_endpoint: pIC50
// returns pIC50 (minus log10 of molar concentration), number only

Worked examples, 4 compounds total:
>>> observed_measurement("N=C(NCCC[C@H](N)C[C@@H](O)CCN)N[N+](=O)[O-]")
2.94
>>> observed_measurement("NCCC[C@H](O)C[C@@H](N)CCCN=C(N)N[N+](=O)[O-]")
2.86
>>> observed_measurement("NC(=NCCC[C@H](N)C[C@H](O)CCO)N[N+](=O)[O-]")
2.78
>>> observed_measurement("N=C(NCCC[C@H](N)C[C@H](O)CCCN)N[N+](=O)[O-]")
2.82

Fill in: pIC50 of NC(=NCCC[C@H](N)C[C@@H](O)CCCO)N[N+](=O)[O-] is ___
2.59

Requested read-out: pIC50. Entry: NC(=NCCC[C@H](N)C[C@@H](O)CCO)N[N+](=O)[O-]
2.96

Can you share its pIC50? I mean this compound: NCC[C@@H](O)C[C@@H](N)CCCN=C(N)N[N+](=O)[O-]
2.87

I have this compound here, N=C(NCCC[C@H](N)C[C@H](O)CCCO)N[N+](=O)[O-] , and I need its recorded pIC50.
3.06
